assay: protein stability index of a GFP-peptide fusion (yeast GPS) (PSI 1-4); higher = more stable; sorted into four equal gates, so the index is relative within each strain; conditions: san1∆
reportedProperty: protein stability index
I only need the number, thanks.

DVIATEPQGAVTHMDQI [SMD3]    2.28
SKSPSEWQDIIHQREQE [CSE2]    3.25
PNTSDNNNNSNNHNMRN [SWI1]    2.93
PKNFGIGQAVQPKRNLS [RPL8A]    2.78
MSGSFWTSTQRHHWQYT [SSN8]    1.97

Could you share which protein stability index value was measured for KREGKTRLLNIVMQLRK [ISW2] ? 3.11

Given the sequence YNRHKLQELIVNGPNVH [RPO31] , what is its reported protein stability index? 1.2

I have this sequence here, TTKERKKSRLGNSFHLM [PRP8] , and I need its recorded protein stability index. 2.57

Consider the sequence NSSTSPAPSIPSTGFKF [YLR335W/NUP2] and give its measured protein stability index. 2.48

Any idea what protein stability index was measured for TRDDLLTILMRSIMKNR [RRI2] ? 2.22
